- Tested on: Mycobacterium tuberculosis
- EXPERIMENTAL DETAILS: Antibacterial activity against Mycobacterium tuberculosis
- Assay type: functional, organism-based
READOUT KIND: pIC50
In plain terms, pIC50 is the concentration in mol/L turned into minus its base-10 logarithm.

Req: Query pIC50 on Mycobacterium tuberculosis for Nc1nc2c(ncn2CCN(CCOCc2ccccc2)CCP(=O)(O)O)c(=O)[nH]1
Resp: 5.96

---

- EXPERIMENTAL DETAILS: Inhibition of hexa-his tagged Helicobacter pylori XGHPRT using guanine and PRib-PP as substrate
Lab note: anything with Ki below 3000 nM is marked fulfilled; values at 3000 nM or higher are marked not fulfilled.

Req: Record Nc1nc2c(ncn2CCN(CCOCCP(=O)(O)O)CCP(=O)(O)O)c(=O)[nH]1 : is its Ki strictly below 3000 nM?
Resp: not fulfilled

Req: Param item: Nc1nc2c(ncn2CCN(CCN(CCO)CCP(=O)(O)O)CCP(=O)(O)O)c(=O)[nH]1
Resp: fulfilled

Req: Param item: Nc1nc2c(nc(Br)n2CC(COCCP(=O)(O)O)COCP(=O)(O)O)c(=O)[nH]1 (stereo not given)
Resp: not fulfilled

Req: Param item: Nc1nc2c(ncn2C(COCCP(=O)(O)O)COCP(=O)(O)O)c(=O)[nH]1 (stereo not given)
Resp: fulfilled

Data provenance is ChEMBL document CHEMBL4825670.
